Experimental Protocol: qHTS assay to identify small molecule antagonists of the androgen receptor (AR) signaling pathway using the MDA cell line - cell viability counter screen (AID 743041; note: nearly all actives have a fitted effect of over 45% in size)
Condition Parameters: MDA-kb2 viability, CellTiter-Fluor, 16 h, cells co-treated with R1881 androgen agonist; series mostly up to 70.3 µM
Results filed as inconclusive are left out. Calls of active or inactive are those of the source. Calls come from the whole dose curve; as a rule, active = well fitted cell-killing curve with a large enough effect in the repeat runs; inconclusive = weak or mixed curves, or effect the other way; inactive = flat fitted curve, though single readings scatter.
Thanks in advance; please answer with one of these: 1 (yes) (active), 0 (no) (inactive)

Exam item: For CC(C)c1ccccc1C(C)C , what call appears in the results of this test?
Marked response: 0 (no)

Exam item: For Cc1cc(C)c(S(=O)(=O)O)cc1N=Nc1cc(S(=O)(=O)O)c2ccccc2c1O , what call appears in the results of this test?
Marked response: 1 (yes)

Exam item: For O=C(/C=C/c1ccc(O)c(O)c1)O[C@@H]1C[C@](O)(C(=O)O)C[C@@H](O)[C@H]1O , what call appears in the results of this test?
Marked response: 0 (no)

Exam item: For CC(O)C1CCCCC1 (stereo not drawn) , what call appears in the results of this test?
Marked response: 0 (no)

Exam item: For CC/C(=C\C(=N/O)C(N)=O)C(C)[N+](=O)[O-] (stereo not drawn) , what call appears in the results of this test?
Marked response: 0 (no)

Exam item: For CC[C@H](C)[C@H](N)C(=O)O , what call appears in the results of this test?
Marked response: 0 (no)

Exam item: For CC(=O)/C=C/C1C(C)=CCCC1(C)C (stereo not drawn) , what call appears in the results of this test?
Marked response: 0 (no)

Exam item: For C[C@@H](C1=C(CCN(C)C)Cc2ccccc21)c1ccccn1 , what call appears in the results of this test?
Marked response: 0 (no)

Exam item: For S=C(S)NCCNC(=S)S , what call appears in the results of this test?
Marked response: 0 (no)

Exam item: For CCN(CCO)CCCC(C)Nc1ccnc2cc(Cl)ccc12 (stereo not drawn) , what call appears in the results of this test?
Marked response: 0 (no)

Exam item: For Oc1ccc(Cc2ccccc2)cc1 , what call appears in the results of this test?
Marked response: 0 (no)

Exam item: For Nc1nc(CC(=O)O)cs1 , what call appears in the results of this test?
Marked response: 0 (no)

Exam item: For CCCCCCCCCC=O , what call appears in the results of this test?
Marked response: 0 (no)

----------
Experimental Protocol: Caspase-3/7 induction in CHO-K1 cells by small molecules, qHTS cell viability counter screen (AID 1346979); note: nearly all actives have a fitted effect of over 35% in size
Condition Parameters: CellTiter-Fluor fluorescence, 17 h; series mostly up to 92.4 µM
Inconclusive results are not listed. Activity calls are given as the source filed them. The call rests on the fitted dose curve; in most records, active means well fitted cell-killing curve with a large enough effect in the repeat runs; inconclusive means weak or mixed curves, or effect the other way; inactive means no such curve, though single readings can be large or run the other way.
Thanks in advance; please answer with one of these: active, inactive

Exam item: For CCCCOc1cc(C(=O)OCCN(CC)CC)ccc1N , what call appears in the results of this test?
Marked response: inactive

Exam item: For Cc1cccc(C(C)(C)C)c1O , what call appears in the results of this test?
Marked response: inactive

Exam item: For CC(=O)O[C@@H]1C(=O)O[C@@H]2[C@H]1OC(=O)[C@@H]2OC(C)=O , what call appears in the results of this test?
Marked response: inactive

Exam item: For CCCCOC(O)CC (configuration not stated) , what call appears in the results of this test?
Marked response: inactive

Exam item: For CCCCOc1ccc(CC(=O)NO)cc1 , what call appears in the results of this test?
Marked response: active

Exam item: For Cc1c(Cn2ccnc2)c2ccccc2n1CCC(=O)O , what call appears in the results of this test?
Marked response: inactive

Exam item: For CC(C)(C)c1cc(O)c(C(C)(C)C)cc1O , what call appears in the results of this test?
Marked response: active

----------
Test Target: Cytochrome P450 1A2 (Homo sapiens)
Experimental Protocol: Cytochrome P450 Family 1 Subfamily A Member 2 (CYP1A2) small molecule antagonists: luciferase reporter qHTS assay (AID 1671199); note: nearly all actives have a fitted effect of over 50% in size
Condition Parameters: P450-Glo CYP1A2 enzyme, luciferin luminescence, 1 h; series mostly up to 115 µM
Source text: National Center for Advancing Translational Sciences [NCATS] U.S. Environmental Protection Agency [EPA] National Institutes of Environmental Health Sciences [NIEHS] National Toxicology Program [NTP] U.S. Food and Drug Administration [FDA] Cytochrome P450 (CYP) enzymes are membrane-bound hemeproteins that play a key role in metabolism of drugs and xenobiotics. […] The luciferin products formed are detected with a luciferin detection reagent, and the amount of light produced is proportional to CYP activity. […]
Inconclusive results are not listed. Calls of active or inactive are those of the source. Calls follow the shape of the dose curve; as a rule, active = well fitted inhibition curve with a large enough effect in the repeat runs; inconclusive = weak or mixed curves; inactive = no such curve, though single readings can be large or run the other way.
Thanks in advance; please answer with one of these: 1.0 = active, 0.0 = inactive

Exam item: For Cc1c(Cn2ccnc2)c2ccccc2n1CCC(=O)O , what call appears in the results of this test?
Marked response: 1.0

Exam item: For CN1CCC[C@@H]1c1cccnc1 , what call appears in the results of this test?
Marked response: 0.0

Exam item: For Cc1ccc(C)o1 , what call appears in the results of this test?
Marked response: 0.0

Exam item: For CC(C)(C)C1CCCCC1O (stereo not drawn) , what call appears in the results of this test?
Marked response: 0.0

Exam item: For Cc1ncsc1CCO , what call appears in the results of this test?
Marked response: 0.0

Exam item: For CNS(=O)(=O)Cc1ccc2[nH]cc(CCN(C)C)c2c1 , what call appears in the results of this test?
Marked response: 0.0

Exam item: For CC(C)c1ccc2c(C(C)C)cc(C(C)C)c(S(=O)(=O)O)c2c1 , what call appears in the results of this test?
Marked response: 0.0

Exam item: For CCCc1ccccc1 , what call appears in the results of this test?
Marked response: 0.0

----------
Experimental Protocol: qHTS assay to identify small molecule antagonists of the peroxisome proliferator-activated receptor delta (PPARd) signaling pathway - cell viability counter screen (AID 743213); note: nearly all actives have a fitted effect of over 50% in size
Condition Parameters: PPARd-bla HEK293H viability, CellTiter-Glo luminescence, 17 h; series mostly up to 62 µM
Inconclusive results are not listed. Calls of active or inactive are those of the source. The call rests on the fitted dose curve; in most records, active means well fitted cell-killing curve with a large enough effect in the repeat runs; inconclusive means weak or mixed curves; inactive means no such curve, though single readings can be large or run the other way.
Thanks in advance; please answer with one of these: active, inactive

Exam item: For Nc1nc(N)c(-c2ccccc2)s1 , what call appears in the results of this test?
Marked response: inactive

Exam item: For O=C(O)/C=C/c1cnc[nH]1 , what call appears in the results of this test?
Marked response: inactive

Exam item: For CCOc1cc(OCC)c(C(=O)CCC(=O)O)cc1OCC , what call appears in the results of this test?
Marked response: inactive

Exam item: For CCN(CC)CCNC(C(=O)OCCC(C)C)c1ccccc1 (stereo not given) , what call appears in the results of this test?
Marked response: inactive

Exam item: For C1=Cc2ccccc2C1 , what call appears in the results of this test?
Marked response: inactive

Exam item: For C#CCOC(=O)[C@@H](C)Oc1ccc(Oc2ncc(Cl)cc2F)cc1 , what call appears in the results of this test?
Marked response: inactive

Exam item: For CCN(CC)C(C)CN1c2ccccc2Sc2ccccc21 (stereo not given) , what call appears in the results of this test?
Marked response: inactive

Exam item: For CCCCCCCCCC(=O)OCC , what call appears in the results of this test?
Marked response: inactive

Exam item: For COc1ccc(C(C)=O)cc1 , what call appears in the results of this test?
Marked response: inactive

Exam item: For O=C=NC1CCC(CC2CCC(N=C=O)CC2)CC1 (stereo not given) , what call appears in the results of this test?
Marked response: inactive

Exam item: For O=C(O)COC(=O)Cc1ccccc1Nc1c(Cl)cccc1Cl , what call appears in the results of this test?
Marked response: inactive

Exam item: For CCCCCOC(=O)COc1cc(N2C(=O)C3=C(CCCC3)C2=O)c(F)cc1Cl , what call appears in the results of this test?
Marked response: inactive

Exam item: For CC(C)c1ccccc1C(C)C , what call appears in the results of this test?
Marked response: inactive

Exam item: For CC(=O)O[C@H]1C[C@@H]2CC[C@@H]3[C@H](CC[C@@]4(C)[C@H]3C[C@H]([N+]3(C)CCCCC3)[C@@H]4OC(C)=O)[C@@]2(C)C[C@@H]1N1CCCCC1 , what call appears in the results of this test?
Marked response: inactive

Exam item: For Cc1cc(C)c(S(=O)(=O)O)cc1N=Nc1cc(S(=O)(=O)O)c2ccccc2c1O , what call appears in the results of this test?
Marked response: inactive

Exam item: For Oc1ccc(Sc2ccc(O)cc2)cc1 , what call appears in the results of this test?
Marked response: inactive

Exam item: For CC(Cc1cccc(C(F)(F)F)c1)NCCOC(=O)c1ccccc1 (stereo not given) , what call appears in the results of this test?
Marked response: active

Exam item: For CC(C)CCCC(C)CCO (stereo not given) , what call appears in the results of this test?
Marked response: inactive

Exam item: For CCOC(=O)C1=NN(c2ccccc2)C(=O)C1 , what call appears in the results of this test?
Marked response: inactive

Exam item: For CC(=O)[C@@]1(O)CC[C@H]2[C@@H]3C[C@H](C)C4=CC(=O)CC[C@]4(C)[C@H]3CC[C@@]21C , what call appears in the results of this test?
Marked response: inactive

Exam item: For C=C(C)C(=O)OC(C)C , what call appears in the results of this test?
Marked response: inactive

Exam item: For O=S1(=O)c2cccc3cccc(c23)N1CCCN1CCN(c2ccc(F)cc2)CC1 , what call appears in the results of this test?
Marked response: inactive

Exam item: For Nc1ccc(C(=O)N2CC3CC(CN(Cc4ccccc4)C3)C2)cc1 , what call appears in the results of this test?
Marked response: inactive

Exam item: For O=C(O)c1cccc(N(Cc2cccnc2)c2ccc(OC(F)F)c(OC(F)F)c2)c1 , what call appears in the results of this test?
Marked response: inactive

Exam item: For Cc1ccccn1 , what call appears in the results of this test?
Marked response: inactive
